Recorded below: IC50, system ATR enzyme (Homo sapiens (Human)).

compound	data.value
C[C@@H]1COCCN1c1cc(-c2ccc(NC(=O)N3CCCCC3)cc2)c2cnn(-c3cc[nH]n3)c2n1	≤ 10 nM
C[C@@H]1COCCN1c1cc(N2CC(c3ccnn3C)C2)c2cnn(-c3cc[nH]n3)c2n1	10 to 50 nM
C[C@@H]1COCCN1c1cc([C@]2(O)C[C@H]3CC[C@@H](C2)O3)c2cnn(-c3ccn[nH]3)c2n1 [RP3500, reference compound]	≤ 10 nM
C[C@@H]1COCCN1c1cc(-c2ccc(N3CCCCC3=O)cc2C#N)c2cnn(-c3cc[nH]n3)c2n1	≤ 10 nM
C[C@@H]1COCCN1c1cc(-c2ccc(N3CCCN(C)C3=O)cc2)c2cnn(-c3cc[nH]n3)c2n1	≤ 10 nM
C[C@@H]1COCCN1c1cc(-c2ccc(NC(=O)NC3CC4CCC(C3)N4)cc2)c2cnn(-c3cc[nH]n3)c2n1 (stereo partly shown)	≤ 10 nM

Please find the next compound below.
Data request: Return IC50 measured with ATR enzyme (Homo sapiens (Human)) given this compound: C[C@@H]1COCCN1c1cc(C#CC2(O)CCN(c3cccc(F)c3)CC2)c2cnn(-c3ccn[nH]3)c2n1
Data returned: 10 to 50 nM

* * *

Recorded below: IC50, system ATR enzyme (Homo sapiens (Human)).

Data request: Return IC50 measured with ATR enzyme (Homo sapiens (Human)) given this compound: C[C@@H]1COCCN1c1cc(-c2c(F)cc(N3CCCCC3=O)cc2F)c2cnn(-c3cc[nH]n3)c2n1
Data returned: ≤ 0.01 µM

Data request: Return IC50 measured with ATR enzyme (Homo sapiens (Human)) given this compound: C[C@@H]1COCCN1c1cc(C#CCN2CC3(CNC3)C2)c2cnn(-c3cc[nH]n3)c2n1
Data returned: 0.01 to 0.05 µM

Data request: Return IC50 measured with ATR enzyme (Homo sapiens (Human)) given this compound: C[C@@H]1COCCN1c1cc(-c2cccc(N3CCCC3=O)c2)c2cnn(-c3cc[nH]n3)c2n1
Data returned: ≤ 0.01 µM

Data request: Return IC50 measured with ATR enzyme (Homo sapiens (Human)) given this compound: C[C@@H]1COCCN1c1cc(-c2cnc(N3CC4CCC(O4)C3=O)cc2F)c2cnn(-c3cc[nH]n3)c2n1 (stereo partly shown)
Data returned: ≤ 0.01 µM

* * *

Recorded below: IC50, system ATR enzyme (Homo sapiens (Human), UniProt Q13535).

Sample answers from the record:
molecule	IC50
C[C@@H]1COCCN1c1cc(C2CN(c3ccnn3C)C2)c2cnn(-c3cc[nH]n3)c2n1	≤ 10 nM
CC(=O)Nc1ccccc1-c1cc(N2CCOC[C@H]2C)nc2c1cnn2-c1cc[nH]n1	10 to 50 nM
C[C@@H]1COCCN1c1cc(-c2ccc(N3CCCNC3=O)cc2)c2cnn(-c3cc[nH]n3)c2n1	≤ 10 nM

Data request: Return IC50 measured with ATR enzyme (Homo sapiens (Human), UniProt Q13535) given this molecule: C[C@@H]1COCCN1c1cc(-c2ccc(NC(=O)C3CC(N)C3)cc2)c2cnn(-c3cc[nH]n3)c2n1 (stereo partly drawn)
Sequence (Q13535 whole entry): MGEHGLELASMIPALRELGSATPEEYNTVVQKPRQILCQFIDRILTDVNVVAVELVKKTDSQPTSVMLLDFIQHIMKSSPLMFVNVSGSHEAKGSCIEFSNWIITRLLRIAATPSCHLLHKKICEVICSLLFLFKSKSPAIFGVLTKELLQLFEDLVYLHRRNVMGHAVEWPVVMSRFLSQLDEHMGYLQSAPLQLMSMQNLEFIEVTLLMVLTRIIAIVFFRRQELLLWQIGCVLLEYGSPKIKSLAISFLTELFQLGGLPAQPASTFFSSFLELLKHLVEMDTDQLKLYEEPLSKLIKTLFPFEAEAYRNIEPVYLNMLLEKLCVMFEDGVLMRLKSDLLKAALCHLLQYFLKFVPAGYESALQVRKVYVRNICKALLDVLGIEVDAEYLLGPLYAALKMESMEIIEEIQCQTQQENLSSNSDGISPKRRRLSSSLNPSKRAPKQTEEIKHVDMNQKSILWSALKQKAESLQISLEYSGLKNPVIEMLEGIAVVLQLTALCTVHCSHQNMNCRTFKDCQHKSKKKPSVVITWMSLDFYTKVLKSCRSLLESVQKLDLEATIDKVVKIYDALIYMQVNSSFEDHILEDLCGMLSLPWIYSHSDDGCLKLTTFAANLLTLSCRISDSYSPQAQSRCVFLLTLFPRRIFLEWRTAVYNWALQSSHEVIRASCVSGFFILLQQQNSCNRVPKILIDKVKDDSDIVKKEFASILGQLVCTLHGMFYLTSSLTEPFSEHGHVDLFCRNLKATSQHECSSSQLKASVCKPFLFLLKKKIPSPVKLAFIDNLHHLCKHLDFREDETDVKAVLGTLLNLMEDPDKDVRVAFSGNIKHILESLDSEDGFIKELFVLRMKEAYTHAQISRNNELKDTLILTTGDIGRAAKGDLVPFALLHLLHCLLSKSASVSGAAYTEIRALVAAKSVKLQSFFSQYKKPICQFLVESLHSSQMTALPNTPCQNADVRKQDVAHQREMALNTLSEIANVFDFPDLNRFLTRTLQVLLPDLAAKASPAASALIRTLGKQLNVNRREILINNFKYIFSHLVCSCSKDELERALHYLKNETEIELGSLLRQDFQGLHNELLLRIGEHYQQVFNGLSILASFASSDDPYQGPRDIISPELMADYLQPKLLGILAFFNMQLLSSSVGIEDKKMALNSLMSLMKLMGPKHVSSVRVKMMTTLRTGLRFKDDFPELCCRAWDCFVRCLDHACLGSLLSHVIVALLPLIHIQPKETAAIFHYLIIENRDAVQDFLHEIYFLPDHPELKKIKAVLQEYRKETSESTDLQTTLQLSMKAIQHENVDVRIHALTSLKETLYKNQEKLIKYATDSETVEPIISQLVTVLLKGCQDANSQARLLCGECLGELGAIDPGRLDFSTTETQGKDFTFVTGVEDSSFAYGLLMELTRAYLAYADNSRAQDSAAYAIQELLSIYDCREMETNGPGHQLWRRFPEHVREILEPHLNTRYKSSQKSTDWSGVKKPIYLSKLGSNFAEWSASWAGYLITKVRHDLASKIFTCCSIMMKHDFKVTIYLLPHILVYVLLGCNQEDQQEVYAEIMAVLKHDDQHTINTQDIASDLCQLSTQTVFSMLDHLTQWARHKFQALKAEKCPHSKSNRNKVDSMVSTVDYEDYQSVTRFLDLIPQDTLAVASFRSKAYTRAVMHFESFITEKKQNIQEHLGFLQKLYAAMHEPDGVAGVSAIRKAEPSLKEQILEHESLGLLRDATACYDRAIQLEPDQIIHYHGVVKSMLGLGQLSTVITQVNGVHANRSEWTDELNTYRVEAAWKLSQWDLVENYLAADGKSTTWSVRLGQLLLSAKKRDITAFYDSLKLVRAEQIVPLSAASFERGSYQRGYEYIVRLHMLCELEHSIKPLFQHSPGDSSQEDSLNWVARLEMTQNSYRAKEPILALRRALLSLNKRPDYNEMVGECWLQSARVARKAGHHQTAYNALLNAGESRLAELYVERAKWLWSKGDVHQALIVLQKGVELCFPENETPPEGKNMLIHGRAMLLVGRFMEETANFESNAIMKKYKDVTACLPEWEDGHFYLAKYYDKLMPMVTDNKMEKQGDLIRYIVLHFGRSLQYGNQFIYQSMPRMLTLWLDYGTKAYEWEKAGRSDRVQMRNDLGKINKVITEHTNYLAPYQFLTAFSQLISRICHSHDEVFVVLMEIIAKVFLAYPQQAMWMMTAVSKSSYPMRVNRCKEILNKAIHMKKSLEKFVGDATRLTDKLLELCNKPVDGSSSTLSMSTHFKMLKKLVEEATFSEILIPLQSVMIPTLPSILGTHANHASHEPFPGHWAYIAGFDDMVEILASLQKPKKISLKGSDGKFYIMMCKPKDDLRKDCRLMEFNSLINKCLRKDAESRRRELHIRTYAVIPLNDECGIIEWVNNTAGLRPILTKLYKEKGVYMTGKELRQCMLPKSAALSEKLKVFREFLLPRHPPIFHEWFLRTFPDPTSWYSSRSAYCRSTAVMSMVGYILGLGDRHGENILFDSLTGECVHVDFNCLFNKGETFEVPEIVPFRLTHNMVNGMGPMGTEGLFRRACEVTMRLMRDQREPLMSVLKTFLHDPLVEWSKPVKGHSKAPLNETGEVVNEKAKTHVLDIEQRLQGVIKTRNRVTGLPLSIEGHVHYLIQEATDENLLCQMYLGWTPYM
Sequence (Q8WXE1 whole entry partner): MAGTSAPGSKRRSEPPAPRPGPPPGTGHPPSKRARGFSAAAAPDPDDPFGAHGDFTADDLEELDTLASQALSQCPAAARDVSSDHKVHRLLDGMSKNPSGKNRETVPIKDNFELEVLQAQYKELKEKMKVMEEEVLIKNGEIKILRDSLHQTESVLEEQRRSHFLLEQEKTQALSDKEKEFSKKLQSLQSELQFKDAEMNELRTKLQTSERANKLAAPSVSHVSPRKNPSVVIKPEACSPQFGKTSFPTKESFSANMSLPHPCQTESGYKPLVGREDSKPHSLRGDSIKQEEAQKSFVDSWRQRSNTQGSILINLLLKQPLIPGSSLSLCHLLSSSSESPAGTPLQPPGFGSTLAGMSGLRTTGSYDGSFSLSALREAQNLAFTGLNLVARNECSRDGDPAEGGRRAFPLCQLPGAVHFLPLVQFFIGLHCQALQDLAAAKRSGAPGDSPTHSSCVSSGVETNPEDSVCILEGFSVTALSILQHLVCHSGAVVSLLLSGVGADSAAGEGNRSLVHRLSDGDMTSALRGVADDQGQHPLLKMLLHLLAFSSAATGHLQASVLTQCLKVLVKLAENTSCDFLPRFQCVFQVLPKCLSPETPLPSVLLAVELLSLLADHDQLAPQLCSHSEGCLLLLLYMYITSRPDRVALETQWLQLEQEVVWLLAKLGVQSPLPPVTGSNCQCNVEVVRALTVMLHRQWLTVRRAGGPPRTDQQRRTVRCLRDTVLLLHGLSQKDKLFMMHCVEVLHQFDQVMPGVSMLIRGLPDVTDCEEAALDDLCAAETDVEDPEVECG
Data returned: ≤ 10 nM

Data request: Return IC50 measured with ATR enzyme (Homo sapiens (Human), UniProt Q13535) given this molecule: CC1CCCN1C(=O)Nc1ccc(-c2cc(N3CCOC[C@H]3C)nc3c2cnn3-c2cc[nH]n2)cc1 (stereo partly drawn)
Data returned: ≤ 10 nM

Data request: Return IC50 measured with ATR enzyme (Homo sapiens (Human), UniProt Q13535) given this molecule: C[C@@H]1COCCN1c1cc(-c2ccc(N3C(=O)CCCC3CO)cc2)c2cnn(-c3cc[nH]n3)c2n1 (stereo partly drawn)
Data returned: ≤ 10 nM

* * *

pIC50: −log10 of the molar value.
Recorded below: pIC50, system UniProt:Q13535.

Sample answers from the record:
compound	data.value
C[C@@H]1COCCN1c1cc(-c2ccc(NC(=O)N3CCCC3)nc2)c2cnn(-c3cc[nH]n3)c2n1 [Example 250]	≥ 8.00
C[C@@H]1COCCN1c1cc(-c2ccc(NC(=O)c3cocn3)cc2F)c2cnn(-c3cc[nH]n3)c2n1 [Example 235]	≥ 8.00
C[C@@H]1COCCN1c1cc(-c2ccc(N3C(=O)C4CCC3CC4)cc2F)c2cnn(-c3cc[nH]n3)c2n1 [Example 264]	≥ 8.00
C[C@@H]1COCCN1c1cc(-c2ccc(NC(=O)C3CCC3)cc2)c2cnn(-c3cc[nH]n3)c2n1 [Example 32]	≥ 8.00
C[C@@H]1COCCN1c1cc(C2(C#N)CCN(c3cccc(F)c3)CC2)c2cnn(-c3cc[nH]n3)c2n1 [Example 208]	≥ 8.00

Data request: Return pIC50 measured with UniProt:Q13535 given this compound: C#Cc1cc(N2CCOC[C@H]2C)nc2c1cnn2-c1cc[nH]n1 [Example 17]
Data returned: 7.30 to 8.00

Data request: Return pIC50 measured with UniProt:Q13535 given this compound: C[C@@H]1COCCN1c1cc(C#CC(=O)N2CC(O)C2)c2cnn(-c3cc[nH]n3)c2n1 [Example 86]
Data returned: 7.30 to 8.00

* * *

- assay.system: ATR enzyme (Homo sapiens (Human), UniProt Q13535)
- protocol.text: Inhibitory effect on ATR enzyme (HTRF, phospho-P53)
- Format: biochemical
- protocol.conditions: 90 minutes incubation, 150 nM ATP final; read-out: IC50 for ATR enzyme inhibition
Below, each entry is listed alongside its reported IC50.

Sample answers from the record:
compound	assay.system	IC50
C[C@@H]1COCCN1c1cc(N2CC(c3ccn(C)n3)C2)c2cnn(-c3cc[nH]n3)c2n1	ATR enzyme (Homo sapiens (Human), UniProt Q13535)	10 to 50 nM
C[C@@H]1COCCN1c1cc(-c2ccc(N3CC4CCC(O4)C3=O)cn2)c2cnn(-c3cc[nH]n3)c2n1 (stereo partly drawn)	ATR enzyme (Homo sapiens (Human), UniProt Q13535)	≤ 10 nM

Please find the next compound below.
Data request: Please report the recorded IC50 for C[C@@H]1COCCN1c1cc(-c2ccc(NC(=O)C34CC5CC(CC(C5)C3)C4)cc2)c2cnn(-c3cc[nH]n3)c2n1 .
Data returned: 10 to 50 nM

* * *

Below, each entry is listed alongside its reported pIC50.
- assay.system: ATR enzyme (Homo sapiens (Human), UniProt Q13535)
pIC50: −log10 of the molar value.

Sample answers from the record:
compound	pIC50
C[C@@H]1COCCN1c1cc(-c2ccc(N3CCCC3=O)cc2F)c2cnn(-c3cc[nH]n3)c2n1 [Example 59]	≥ 8.00
C[C@@H]1COCCN1c1cc(-c2ccc(NC(=O)C(F)F)cc2F)c2cnn(-c3cc[nH]n3)c2n1 [Example 236]	≥ 8.00
C[C@@H]1COCCN1c1cc(C2(O)CCC(C#N)CC2)c2cnn(-c3cc[nH]n3)c2n1 (stereo partly drawn) [RP103, reference compound]	≥ 8.00
C[C@@H]1COCCN1c1cc(-c2cc(NC(=O)C3CC3)on2)c2cnn(-c3cc[nH]n3)c2n1 [Example 260]	≥ 8.00
C[C@@H]1COCCN1c1cc(-c2ccc(NC(=O)C3CC3)cc2F)c2cnn(-c3cc[nH]n3)c2n1 [Example 234]	≥ 8.00
C[C@@H]1COCCN1c1cc(-c2ccc(N3C(=O)C4C=CC3C4)cc2F)c2cnn(-c3cc[nH]n3)c2n1 (stereo partly drawn) [Example 262]	≥ 8.00

Data request: Return pIC50 measured with ATR enzyme (Homo sapiens (Human), UniProt Q13535) given this compound: COc1cc(-c2cc(N3CCOC[C@H]3C)nc3c2cnn3-c2cc[nH]n2)ncc1NC(=O)N1CCCC1 [Example 247]
Data returned: 7.30 to 8.00

Data request: Return pIC50 measured with ATR enzyme (Homo sapiens (Human), UniProt Q13535) given this compound: C[C@@H]1COCCN1c1cc(-c2ccc(N(C)C(=O)N3CCCC3)cc2)c2cnn(-c3cc[nH]n3)c2n1 [Example 223]
Data returned: ≥ 8.00

Data request: Return pIC50 measured with ATR enzyme (Homo sapiens (Human), UniProt Q13535) given this compound: CCn1ccn(-c2ccc(-c3cc(N4CCOC[C@H]4C)nc4c3cnn4-c3cc[nH]n3)cc2)c1=O [Example 222]
Data returned: ≥ 8.00

* * *

- assay.system: ATR enzyme (Homo sapiens (Human))
Below, each entry is listed alongside its reported IC50.

Sample answers from the record:
compound	assay.system	data.value
C[C@@H]1COCCN1c1cc(-c2ccc(NC(=O)C3CC(O)C3)cc2)c2cnn(-c3cc[nH]n3)c2n1 (stereo partly drawn)	ATR enzyme (Homo sapiens (Human))	≤ 10 nM
COc1cc(NC(=O)N2CCCC2)ncc1-c1cc(N2CCOC[C@H]2C)nc2c1cnn2-c1cc[nH]n1	ATR enzyme (Homo sapiens (Human))	10 to 50 nM

Please find the next compound below.
Data request: Return IC50 measured with ATR enzyme (Homo sapiens (Human)) given this compound: Cc1cc(-c2cc(N3CCOC[C@H]3C)nc3c2cnn3-c2cc[nH]n2)ccc1N1CC2CCC(O2)C1=O (stereo partly drawn)
Data returned: ≤ 10 nM

Source of measurements: patent US20250066350A1
